Target: Urotensin-2 receptor (Homo sapiens)
Sequence (Q9UKP6 whole entry): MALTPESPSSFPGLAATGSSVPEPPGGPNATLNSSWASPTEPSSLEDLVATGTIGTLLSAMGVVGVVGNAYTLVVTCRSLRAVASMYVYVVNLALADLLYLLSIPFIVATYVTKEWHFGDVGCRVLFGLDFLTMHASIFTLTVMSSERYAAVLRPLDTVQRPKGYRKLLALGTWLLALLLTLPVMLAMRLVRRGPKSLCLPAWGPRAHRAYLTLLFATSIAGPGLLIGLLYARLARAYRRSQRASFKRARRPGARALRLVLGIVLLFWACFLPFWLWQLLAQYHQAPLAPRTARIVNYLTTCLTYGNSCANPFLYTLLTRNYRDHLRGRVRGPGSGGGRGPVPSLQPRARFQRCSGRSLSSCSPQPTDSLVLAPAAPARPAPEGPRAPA
Assay: Displacement of [125I]hU-2 from human recombinant Urotensin 2 receptor expressed in HEK293 cells
Measured Ki by item
Express your answer in nM, writing the number without its unit.

compound	measurement_units	value
O=C(Cn1c(=O)sc2ccc(Cl)cc21)N1CCCC(c2ccccc2)C1CN1CCCC1 (racemic)	nM	1.2
Cc1cc2ncc(=O)n(CC(=O)N3CCCC(c4ccccc4)C3CN3CCCC3)c2cc1C (racemic)	nM	1

Next, consider the following compound.
Lab note: need Ki with Urotensin-2 receptor (Homo sapiens) for entry O=C(Cn1c(=O)cnc2cc(Cl)c(Cl)cc21)N1CCCC(c2ccccc2)C1CN1CCCC1 (racemic) , please look it up.
0.6

---

Quick note: these are pIC50 numbers for system: UniProt:P10635
Lab note: report pIC50 as minus log10 of the concentration in molar units, number only.

compound	parameter	value
O=C(Cn1c(=O)cnc2cc(Cl)c(Cl)cc21)N1CCCC(c2ccccc2)C1CN1CCOCC1 (racemic)	pIC50	4.68

Return reported pIC50; argument: Cc1cc2c(cc1C)N(CC(=O)N1CCCC(c3ccccc3)C1CN1CCCC1)C(=O)CO2 (racemic)
5.29

Moving on to O=C(Cn1c(=O)cnc2cc(Cl)c(Cl)cc21)N1CCCC(c2ccccc2)C1CN1CCCC1 (racemic)
5.54

Moving on to COCCN(CC(=O)N1CCCC(c2ccccc2)C1CN1CCCC1)c1ccc(Cl)c(Cl)c1 (centres undefined)
6.09

Moving on to N#CCN(CC(=O)N1CCCC(c2ccccc2)C1CN1CCCC1)c1ccc(Cl)c(Cl)c1 (racemic)
5.64

Moving on to O=C(Cn1c(=O)oc2ccc(Cl)cc21)N1CCCC(c2ccccc2)C1CN1CCOCC1 (racemic)
5.46

---

Target: Cytochrome P450 2D6 (Homo sapiens, UniProt P10635)
Sequence (P10635 whole entry): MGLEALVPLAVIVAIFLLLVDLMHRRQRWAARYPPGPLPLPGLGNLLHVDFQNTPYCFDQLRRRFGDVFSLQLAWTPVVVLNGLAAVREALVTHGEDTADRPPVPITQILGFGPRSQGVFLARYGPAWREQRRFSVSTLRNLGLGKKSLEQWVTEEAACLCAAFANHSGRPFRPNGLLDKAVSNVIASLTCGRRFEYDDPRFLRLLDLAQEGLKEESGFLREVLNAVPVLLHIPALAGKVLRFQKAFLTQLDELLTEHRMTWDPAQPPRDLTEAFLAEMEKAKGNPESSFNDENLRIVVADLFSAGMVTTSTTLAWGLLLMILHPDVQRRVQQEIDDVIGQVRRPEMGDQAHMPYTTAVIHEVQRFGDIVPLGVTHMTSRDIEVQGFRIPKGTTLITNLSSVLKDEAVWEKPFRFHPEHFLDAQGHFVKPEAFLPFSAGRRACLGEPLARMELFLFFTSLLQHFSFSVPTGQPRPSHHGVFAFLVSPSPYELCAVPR
Measured IC50 by item
In your response, the unit should come after the numeric value.

Consider the reported IC50 for these compounds:
compound	parameter	value
O=C1COc2cc(Cl)c(Cl)cc2N1CC(=O)N1CCCC(c2ccccc2)C1CN1CCCC1 (racemic)	IC50	1600 nM
CN(CC(=O)N1CCCC(c2ccccc2)C1CN1CCOCC1)c1ccc(Cl)c(Cl)c1 (racemic)	IC50	2300 nM

Next, consider the following compound.
Return reported IC50; argument: O=C(Cn1c(=O)oc2ccc(Cl)cc21)N1CCCC(c2ccccc2)C1CN1CCCC1 (racemic)
2200 nM
